Biological target: intestinal alkaline phosphatase Alpi (Mus musculus)
Assay: inhibitors of murine Alpi enzyme – biochemical, ortholog specificity, luminescence, set 2, selectivity assay for human IAP inhibitor project, SAR follow-up (AID 540274)
Conditions: purified mouse IAP, CDP-Star luminescence, 30 min
Calls of active or inactive are those of the source.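 Rule for the calls: active = mean IC50 below 100 µM; inactive = the rest.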
Your answer must be one of the following: active, inactive

Prompt line: Answer briefly: the call reported for Cc1ccc(C)c(NC(=O)CCNS(=O)(=O)c2ccc3[nH]c(=O)oc3c2)c1 in this assay.
Response line: active

Next:
Prompt line: Answer briefly: the call reported for O=C(CNS(=O)(=O)c1ccc2[nH]c(=O)oc2c1)NCc1ccc2c(c1)OCO2 in this assay.
Response line: active

Prompt line: Answer briefly: the call reported for O=C(CNS(=O)(=O)c1ccc2[nH]c(=O)oc2c1)Nc1ccc2c(c1)OCO2 in this assay.
Response line: active

Prompt line: Answer briefly: the call reported for COc1ccc(NC(=O)CNS(=O)(=O)c2ccc3[nH]c(=O)oc3c2)cc1OC in this assay.
Response line: active

Prompt line: Answer briefly: the call reported for N#Cc1ccc(CNC(=O)CCNS(=O)(=O)c2ccc3[nH]c(=O)oc3c2)cc1 in this assay.
Response line: inactive

Recorded values, source PubChem BioAssay AID540274.
